The reader will find reported combination Emax values listed item by item below.
Test system: SW1573 (Lung Adenocarcinoma)
Assay: combination Emax (second highest fraction inhibited in the dose matrix, 72 h); higher = more inhibition; extreme values may be limits of the assay
Number, no unit, nothing else.

The following compounds have reported results that may help.
compound	numericResult
CN(CCO)CC[C@H](CSc1ccccc1)Nc1ccc(S(=O)(=O)NC(=O)c2ccc(N3CCC([C@@H](O)c4ccccc4-c4ccc(Cl)cc4)CC3)cc2)cc1S(=O)(=O)C(F)(F)F [AZD4320] + CN(C)CCCOc1ccc(-c2ccc3ncc4c(c3c2)n(C2CCOCC2)c(=O)n4C)cn1 [AZD0156] (first compound max 1 µM, 7x7, partner max 1 µM)	0.128
Cc1c2c(nn1C)CSCc1cc(n(C)n1)CSc1cc(c3ccccc3c1)OCCCc1c(C(=O)O)n(C)c3c-2c(Cl)ccc13 [AZD5991] + Cn1cnc2c(F)c(Nc3ccc(Br)cc3Cl)c(C(=O)NOCCO)cc21 [Selumetinib] (first compound max 1 µM, 7x7, partner max 3 µM)	0.169

Entry Cc1cc2ncnn2cc1Nc1ncc2c(n1)n(C1CCOCC1)c(=O)n2C [AZD7648] + CCN(CCO)CCCOc1ccc2c(Nc3cc(CC(=O)Nc4cccc(F)c4)[nH]n3)ncnc2c1 [AZD2811] (first compound max 10 µM, 7x7, partner max 1 µM) ; combination Emax = 0.287

====

System: BE2-M17 (Neuroblastoma)
Assay: combination Emax (second highest fraction inhibited in the dose matrix, 72 h); higher = more inhibition; extreme values may be limits of the assay
The reader will find reported combination Emax values listed item by item below.
Number, no unit, nothing else.

molecule	combination Emax
Cc1c2c(nn1C)CSCc1cc(n(C)n1)CSc1cc(c3ccccc3c1)OCCCc1c(C(=O)O)n(C)c3c-2c(Cl)ccc13 [AZD5991] + C[C@@H]1COCCN1C2=NC(=NC(=C2)C3(CC3)[S@](=N)(=O)C)C4=C5C=CNC5=NC=C4 [AZD6738] (first compound max 1 µM, 7x7, partner max 10 µM)	0.991
CN(CCO)CC[C@H](CSc1ccccc1)Nc1ccc(S(=O)(=O)NC(=O)c2ccc(N3CCC([C@@H](O)c4ccccc4-c4ccc(Cl)cc4)CC3)cc2)cc1S(=O)(=O)C(F)(F)F [AZD4320] + C1CN(CCC1(C(=O)N[C@@H](CCO)C2=CC=C(C=C2)Cl)N)C3=NC=NC4=C3C=CN4 [Capivasertib] (first compound max 1 µM, 7x7, partner max 3 µM)	0.374

Entry C[C@@H](c1ccc2nccn2c1)n1nnc2ncc(-c3cnn(C)c3)nc21 [Savolitinib] + Cc1c2c(nn1C)CSCc1cc(n(C)n1)CSc1cc(c3ccccc3c1)OCCCc1c(C(=O)O)n(C)c3c-2c(Cl)ccc13 [AZD5991] (first compound max 1 µM, 7x7, partner max 1 µM) ; combination Emax = 0.129

====

System: GAMG (Glioblastoma)
Assay: Bliss excess, mean over the matrix (fraction); higher = more synergy
The reader will find reported Bliss excess values listed item by item below.
Number, no unit, nothing else.

The following molecules have reported results that may help.
molecule	testedTarget	numericResult
CC(=O)c1c(C)c2cnc(Nc3ccc(N4CCNCC4)cn3)nc2n(C2CCCC2)c1=O [Palbociclib] + Cc1c2c(nn1C)CSCc1cc(n(C)n1)CSc1cc(c3ccccc3c1)OCCCc1c(C(=O)O)n(C)c3c-2c(Cl)ccc13 [AZD5991] (first compound max 10 µM, 7x7, partner max 1 µM)	GAMG (Glioblastoma)	-0.0142
C[C@@H](Nc1cc(F)cc(F)c1)c1cc(C(=O)N(C)C)cc2c(=O)cc(N3CCOCC3)oc12 [AZD8186] + C1CN(CCC1(C(=O)N[C@@H](CCO)C2=CC=C(C=C2)Cl)N)C3=NC=NC4=C3C=CN4 [AZD5363] (first compound max 10 µM, 7x7, partner max 10 µM)	GAMG (Glioblastoma)	-0.0849
CN(CCO)CC[C@H](CSc1ccccc1)Nc1ccc(S(=O)(=O)NC(=O)c2ccc(N3CCC([C@@H](O)c4ccccc4-c4ccc(Cl)cc4)CC3)cc2)cc1S(=O)(=O)C(F)(F)F [AZD4320] + C[C@@H]1COCCN1C2=NC(=NC(=C2)C3(CC3)[S@](=N)(=O)C)C4=C5C=CNC5=NC=C4 [AZD6738] (first compound max 1 µM, 7x7, partner max 10 µM)	GAMG (Glioblastoma)	-0.0756

Here is the next item to consider.
Entry CN(C)CCCOc1ccc(-c2ccc3ncc4c(c3c2)n(C2CCOCC2)c(=O)n4C)cn1 [AZD0156] + O=C(c1cc(Cc2n[nH]c(=O)c3ccccc23)ccc1F)N1CCN(C(=O)C2CC2)CC1 [Olaparib] (first compound max 3 µM, partner max 3 µM) ; Bliss excess = 0.0515

====

Tested on: Detroit562 (Head and Neck Carcinoma)
Test: Bliss excess, mean over the matrix (fraction); higher = more synergy
measuredAttribute: Bliss excess
Number, no unit, nothing else.

The following compounds have reported results that may help.
compound	measuredAttribute	numericResult
CC1(C)CCC(CN2CCN(c3ccc(C(=O)NS(=O)(=O)c4ccc(NCC5CCOCC5)c([N+](=O)[O-])c4)c(Oc4cnc5[nH]ccc5c4)c3)CC2)=C(c2ccc(Cl)cc2)C1 [Venetoclax] + C=CCn1c(=O)c2cnc(Nc3ccc(N4CCN(C)CC4)cc3)nc2n1-c1cccc(C(C)(C)O)n1 [AZD1775] (first compound max 1 µM, partner max 1 µM)	Bliss excess	-0.0478
Cc1cc2ncnn2cc1Nc1ncc2c(n1)n(C1CCOCC1)c(=O)n2C [AZD7648] + O=C(c1cc(Cc2n[nH]c(=O)c3ccccc23)ccc1F)N1CCN(C(=O)C2CC2)CC1 [Olaparib] (first compound max 10 µM, 7x7, partner max 10 µM)	Bliss excess	-0.0108

Entry CN(C)CCCOc1ccc(-c2ccc3ncc4c(c3c2)n(C2CCOCC2)c(=O)n4C)cn1 [AZD0156] + C=CCn1c(=O)c2cnc(Nc3ccc(N4CCN(C)CC4)cc3)nc2n1-c1cccc(C(C)(C)O)n1 [AZD1775] (first compound max 1 µM, partner max 1 µM) ; Bliss excess = -0.0122

Entry Cc1c2c(nn1C)CSCc1cc(n(C)n1)CSc1cc(c3ccccc3c1)OCCCc1c(C(=O)O)n(C)c3c-2c(Cl)ccc13 [AZD5991] + CN(C)CCCOc1ccc(-c2ccc3ncc4c(c3c2)n(C2CCOCC2)c(=O)n4C)cn1 [AZD0156] (first compound max 1 µM, 7x7, partner max 1 µM) ; Bliss excess = -0.0251

====

Test system: Detroit562 (Head and Neck Carcinoma)
Test: Bliss excess, mean over the matrix (fraction); higher = more synergy
measuredAttribute: Bliss excess

compound	testedTarget	measuredAttribute	result
CN(CCO)CC[C@H](CSc1ccccc1)Nc1ccc(S(=O)(=O)NC(=O)c2ccc(N3CCC([C@@H](O)c4ccccc4-c4ccc(Cl)cc4)CC3)cc2)cc1S(=O)(=O)C(F)(F)F [AZD4320] + C1CN(CCC1(C(=O)N[C@@H](CCO)C2=CC=C(C=C2)Cl)N)C3=NC=NC4=C3C=CN4 [Capivasertib] (first compound max 1 µM, 7x7, partner max 3 µM)	Detroit562 (Head and Neck Carcinoma)	Bliss excess	-0.0535
CC(=O)Nc1cccc(-n2c(=O)n(C3CC3)c(=O)c3c(Nc4ccc(I)cc4F)n(C)c(=O)c(C)c32)c1 [Trametinib] + Cc1nc(-c2cn3c(n2)-c2ccc(-c4cnn(C(C)(C)C(N)=O)c4)cc2OCC3)n(C(C)C)n1 [Taselisib] (first compound max 1 µM, 7x7, partner max 10 µM)	Detroit562 (Head and Neck Carcinoma)	Bliss excess	0.108

Entry Cc1c2c(nn1C)CSCc1cc(n(C)n1)CSc1cc(c3ccccc3c1)OCCCc1c(C(=O)O)n(C)c3c-2c(Cl)ccc13 [AZD5991] + CC1(C)CCC(CN2CCN(c3ccc(C(=O)NS(=O)(=O)c4ccc(NCC5CCOCC5)c([N+](=O)[O-])c4)c(Oc4cnc5[nH]ccc5c4)c3)CC2)=C(c2ccc(Cl)cc2)C1 [Venetoclax] (first compound max 1 µM, 7x7, partner max 1 µM) ; Bliss excess = -0.0119

====

The reader will find reported Bliss excess values listed item by item below.
Test system: LNZTA3WT4 (Low Grade Glioma)
Test: Bliss excess, mean over the matrix (fraction); higher = more synergy
Number, no unit, nothing else.

compound	numericResult
CN(C)CCCOc1ccc(-c2ccc3ncc4c(c3c2)n(C2CCOCC2)c(=O)n4C)cn1 [AZD0156] + C[C@@H]1COCCN1C2=NC(=NC(=C2)C3(CC3)[S@](=N)(=O)C)C4=C5C=CNC5=NC=C4 [AZD6738] (first compound max 1 µM, 7x7, partner max 10 µM)	-0.0016
COc1cc2ncnc(Nc3ccc(F)c(Cl)c3)c2cc1OCCCN1CCOCC1 [Gefitinib] + CC(C)n1c(=O)n(C)c2cnc3cc(F)c(-c4ccc(OCCCN5CCCCC5)nc4)cc3c21 [AZD1390] (first compound max 10 µM, 7x7, partner max 0.3 µM)	-0.0393
COc1nnc2ccc(N3CCC(c4ccc(OCCN5CCN(C)C(=O)[C@H]5C)cc4)CC3)nn12 [AZD5153] + Cc1c2c(nn1C)CSCc1cc(n(C)n1)CSc1cc(c3ccccc3c1)OCCCc1c(C(=O)O)n(C)c3c-2c(Cl)ccc13 [AZD5991] (first compound max 1 µM, 7x7, partner max 1 µM)	0.0112

Entry CC1(C)CCC(CN2CCN(c3ccc(C(=O)NS(=O)(=O)c4ccc(NCC5CCOCC5)c([N+](=O)[O-])c4)c(Oc4cnc5[nH]ccc5c4)c3)CC2)=C(c2ccc(Cl)cc2)C1 [Venetoclax] + Cn1cnc2c(F)c(Nc3ccc(Br)cc3Cl)c(C(=O)NOCCO)cc21 [Selumetinib] (first compound max 1 µM, 7x7, partner max 3 µM) ; Bliss excess = -0.0321
